Reference source for all entries: the supplement of paper PMC9170038

Tested on: K4 kissing-loop RNA reporter
assay.notes: apparent KD of K4 kissing-loop reporter; higher = weaker reporter binding
conditions: Eterna round: R107; input ligand: none
Entries and their apparent KD of K4 kissing-loop reporter
parameter.measured: apparent KD of K4 kissing-loop reporter (nM)

sequence.input	observed.result
AGACUACCACACUGUCAAUAGACAGUGGACUAGGAUAUGCUGAUAAGCAGAAGGAGUGAUGUUCCAAGGUAGUCAAUAAAAUAAU [FmnAX 13 G28+A66]	309
UGACGUUUGGGAAGGAGCGGAAUGUAAUACGGAGCGCGUGGAGAUGCAGUGAUGUUGCAGAUCCAGGUAGGUCGCCCAAGGGACG [Zati]	80.9
UCCUGCAAUCGUCCACGAAAGUGGAUUGAUACCAGAGUCGAAAGACUCCCUUGGCAGCGAGUGAUGUUCGAAGCAGGUAAAUAAA	417
ACGCUAGCUACCGAAAGGUAGCUAGCGAGUGAGGAUAUGUGGAAACACAGAAGGCACAGCGCAGUGAUGUUGUGCGGCGAAAGCC [whbob_SS_FMNA__2th166]	418
UACUGGGCGAGUGAUGUUCGCUCACGUGAUACCAGUGCCAUCCAACACCCUUGGCAGCACGCGGGCAGUGAUGUUGUCCUUGUAU [Exclusion Theophylline A GF 5]	123
AACGCAAGUUGUCUGGUAGACAUUUCAGAUACCAGACAUAGUGAUGUCCCUUGGCAGCUGAACAUCCAGUGAUGUUGGAUACGUU [Theo A SS t11a]	513

----------
Tested on: K4 kissing-loop RNA reporter
assay.notes: apparent KD of K4 kissing-loop reporter; higher = weaker reporter binding
conditions: Eterna round: R107; input ligand: none
parameter.measured: apparent KD of K4 kissing-loop reporter (nM)

sequence.input	parameter.measured	observed.result
GAAGUACAGGCGGCCGCCACUAGUGAUGUUAGUGAUAAAAGAUAAAGUAUAUAUCGGCAUGUAGAUAGGACCGGGCCUGAUGGAG [uiiumullin]	apparent KD of K4 kissing-loop reporter	186
GGUAGCAUGGCGGCCGCCACUGUCUAGUGAUGUUAGACCCGACGUGGAUUCAAGACAGUCGGAAACAGGACCGGGCCAUGCUACC	apparent KD of K4 kissing-loop reporter	330
UAAUAAAUUCCAGCGAUAUCGCUCUUCGAAGGAGCGGGCGAAGGUCCAGGUAGGUCGCGGAGAGUGAUGUUCUUUGCGGCGCUGG [whbob_Ex_Arginine_A_2t135]	apparent KD of K4 kissing-loop reporter	239
UGUAUGUGAUUUGAUACCAGACCAGCUGGAGGAAUCUGAGUGAUGUUCAGGUAGGUUUGGGUCCCUUGGCAGCAAAUCGCAUACU [KL-SSTheoB17]	apparent KD of K4 kissing-loop reporter	236
GCGAACAUUCGCAGUGAUGUUGCGACGGAAGGAGCGCGUGAAAACGCAGGUAGGUCGCCGACAAAAUUAAUUUUAAUGUGUUCGC [Arginine A K4 27]	apparent KD of K4 kissing-loop reporter	488
CAGUUCUAUUCCGGUAGUGAUGUUACCAAGCGAGGACCGGUACGGCCGCCACUCGAGUGACAGACGUACUGGUAUCACCCGCUUC	apparent KD of K4 kissing-loop reporter	164

----------
Tested on: MS2 coat protein
assay.notes: apparent KD of MS2 coat protein, switch OFF state (with FMN for OFF switches, without FMN for ON switches); designed switch direction (-1 OFF switch, 1 ON switch): -1; higher = weaker reporter binding
conditions: FMN input: 0 or 200 uM; Eterna round: R93 (includes R88 designs)
parameter.measured: apparent KD of MS2 coat protein (nM)

sequence.input	observed.result
AACAAGACAGGAUAUACAUGAGGAUCACCCAUGUCACAAUAAAGUAGCGUAACACAAAGUAGAAGGGUCAUGGA [Ruby 8]	50.4
AUUAAGUGAGGAUAUGAGUGAACAACAAAACAAAUAACGACUCAGAAGGCACAUGAGGAUCACCCAUGUAUAAA [May 69]	28.7
GAAAAGAAAGGAUAUAAAACAGAGGAUAUACAUAAAUAAAAACAUGAGGAUCACCCAUGUAGAAGGCUGAAAAG [Meechl Ex2 R2 m2]	20.5
AAAAAACAUGAGGAUCACCCAUGUAAGGAUAUGCGAAAUAAAAGAAAUAAAAAGGAAAGCAGAAGGUACAUGAA [JL wbt mod 8]	84.4
AAAAAGUGAGGAUAUGUCAAAAGUCACAAAAGUGACAAAAGACAGAAGGCACAUGAGGAUCACCCAUGUGAAAG [Mat - Exaclusion 4 - Eli mod - D53]	37.6
AAGAAACAUGAGGAUCACCCAUGUAAGGAUAUCUAAAAGAAAAGAAAAGAAAGAAGAAGGAGAAGGUACAAAGG [Sehertawy Intef I]	30
AACGAACAUGAGGAUCACCCAUGUCAGGAUAUGCAAAGAACGAUCGAACGAACGAUAAGCAGAAGGGACAGAGA [Amethyst 97]	40.4
AGGAUGUCAGGAUAUGCGUAAAGAAUAAAACAAAUAACAACGCAGAAGGGACAUGAGGAUCACCCAUGUUAAGA [May 45]	86
CGCAAGUCAGGAUAUUCGACAGGUAAAUCAGUAGAUCAGAAGAAGAAGGGACAUGAGGAUCACCCAUGUAAGUA [JR_Exc004_Sub405]	24.3
AUAAACGGAGGAUAUACAUGAGGAUCACCCAUGUAAAAAAAAAAAAGUUCCUCAAAAAGUAGAAGGUCGAAUAA [JR_Exc003_Sub012]	13
AUAAAGACAGGAUAUACAUGAGGAUCACCCAUGUAAAAAAAAAAAAGUUCCUCAAAAAGUAGAAGGGUCAAUAA [JR_Exc003_Sub014]	119
UAAAGACAUGAGGAUCACCCAUGUGAGGAUAUCGGAGACAACAGAACAUCAAGUACAAUGAGAAGGCACAGAAA [JR_Exc001_Sub018]	47.1
AAAAAUUGAGGAUAUACGUACAUGUCGAAAGACGUGAAGGGACAUGAGGAUCACCCAUGUAGAAGGCGAAAAAA [Mat - Exclusion 2 - JL mod - D73]	27.9

----------
Tested on: K4 kissing-loop RNA reporter;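 note: bound reporter read as fluorescence of individual clusters on recovered sequencing chips by microscopy, with normalized cluster intensities fitted with a binding model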
assay.notes: apparent KD of K4 kissing-loop reporter; higher = weaker reporter binding
conditions: Eterna round: R107; input ligand: tryptophan 2.4 mM
Here, each record is paired with measured apparent KD of K4 kissing-loop reporter data.
parameter.measured: apparent KD of K4 kissing-loop reporter

sequence.input	observed.result
CAUGGAGUGAUGCUCCAUGAUCGGGCUUGGCAGGAUAUGGGAUCUUCCAGAAGGGCCGAUCCCAGCGAGUGAUGUUCGCUGGUCU [Exclusion FMN A GF 27]	108 nM
UCCUGCAAUCUACCACGAAAGUGGAUGGAUACCAGAGUCGAAAGACUCCCUUGGCAGCCAGUGAUGUUGGAGCAGGUAAAAUAAA	529 nM
GCCUAGCAGGGAAGGAGCGGCAUAAGCAUAGAUAAUAUGCAGUUAGUGAUGUUAAUACUAUGCCAGGUAGGUCGCCCUGCUAGGC [KL-SSArg B7]	537 nM

----------
We begin with a simple list: items and their reported apparent KD of MS2 coat protein.
Tested on: MS2 coat protein
assay.notes: apparent KD of MS2 coat protein; designed switch direction (-1 OFF switch, 1 ON switch): 1; higher = weaker reporter binding
conditions: input ligand: none

sequence.input	apparent KD of MS2 coat protein [µM]
AGAUCAUGACGAGGAUAUGGUACAUGAGGAUCACCCAUGUAUGUACCACGACGCGUACGUCGAAUCCAGAAGGCGUCAUGGUCA [Mat - Same State NG 2 - JL mod - D17] (Eterna round: R96, puzzle: Same State NG 2)	0.119
UUGCUCGUGUGAGGAUAUGCAGCCGUUUCGGCUGCAGAAGGUACUAUAAUACAUGAGGAUCACCCAUGUCUCUGUUGUUUCGUG [salish99_SSNG1_r04_931] (Eterna round: R96, puzzle: Same State NG 1)	0.0275
GCACUCCAAGGAGCUGCGACAUGAGGAUCACCCAUGUAAUCACAGGAUAUGCGAUUCCGAAUUUUGCAGAAGGGUGAUAAGAAC [Ratele] (Eterna round: R96, puzzle: Same State NG 3)	0.106
CACAUCCAGGUAGGAUAUGAGGUGCCAUAGGGAAAAGCCUAUGGACAUGAGGAUCACCCAUGUCCUCAGAAGGGCCGGACGUGA [Ceerbearre] (Eterna round: R96, puzzle: Same State NG 2)	0.0967

----------
System: MS2 coat protein
assay.notes: apparent KD of MS2 coat protein; higher = weaker reporter binding
conditions: Eterna round: R107; input ligand: tryptophan 2.4 mM
Grouping key: apparent KD of MS2 coat protein. Bins: lower bin: < 0.04 µM; middle bin: ≥ 0.04 µM and < 0.2 µM; upper bin: ≥ 0.2 µM

sequence.input	subject.of.test	class.assignment
CAAUAUAUAUGAAGGAGCGUCGAAAAUGGGUAAACAUGAGGAUCACCCAUGUAAAGGGAACGACAGGUAGGUCGCAUAUAUAUUG [AstromonsSSArgB#8]	MS2 coat protein	middle bin
GAACAUGAGGAUCACCCAUGUAAAACAGAUACCAGUGAUAUAAUACACCCUUGGCAGCUGUAGCUGAAUAAUAAUUCCCUCAAGC [#19 SameState-TheophyllineA]	MS2 coat protein	lower bin
GAGCUGAUGUAGAGCCUUUAGUUCUGAGAUACCAGUACAGAAAUGUACCCUUGGCAGCUCAGCUUUACAUGAGGAUCACCCAUGU [Ex Theophylline A 17]	MS2 coat protein	lower bin
ACACGAGGAUCACCCGUGUCAUGUGGUGAUACCAGUUUACAUGAGAACCCUUGGCAGCAUAACAACAUGAGGAUCACCCAUGUCA [Same State - Theophylline A #1]	MS2 coat protein	lower bin
UUCAGUACAACAGAUACCAGACAGUACUCUAAAUUGCAACAUGAGGAUCACCCAUGUAUAGUCCCUUGGCAGCUGUAAUGGGUGA [Theo B SS s2]	MS2 coat protein	middle bin
UGUAUGGACUGAAGGAGCGCCUCAAAAUAACUUGAGGAUCACCCAGGUAAGGCGAAAGCCGGGCAGGUAGGUCGCAGUCCAUACU [ArgBX 3]	MS2 coat protein	middle bin
AACAUGAGGAUCACCCAUGUCGGGCCGGUGCGAGGACCGGUACGGCCGCCACUCGAGACAUGAGGAUCACCCAUGUAGGGCGAGA [Exclusion Tryptophan A GF22]	MS2 coat protein	middle bin
CAUAAUUUAUCCUAUAAAACUAUUAGUGAUACCAGCACCUCAUGAUGCCCUUGGCAGCACUUACAUGAGGAUCACCCAUGUUUUA [JR_NU_SSTheophyA_Sub029]	MS2 coat protein	middle bin
AUAACAUGAGGAUCACCCAUGUAAGGUGAUACCAGACGAAGUAAAGUCCCUUGGCAGCACAAGUAAAGUUACGAAUAUUGAUAGA [JR_SSTheophyA_Sub004]	MS2 coat protein	upper bin
UUCGCGGCCGCGCUGCACAUGUGUGUGUUACGAGGACCGGUACGGCCGCCACUCGCGAUCGCACAUGAGGAUCACCCAUGUGGGA [Exclusion Tryp A GF17]	MS2 coat protein	upper bin
UUAACGAGCUGAAGGAGCGCUCUUCAUCAACAUGAGGAUCACCCAUGUACACAUAAUAGGGAGCAGGUAGGUCGCAGCGGGAUGG [#24 Same State - Arginine B]	MS2 coat protein	lower bin
AGUUGACAAAAGUCAGCAACAUGAUCCGAAGGAGCGGGCGAAAGCCCAGGUAGGUCGCGGACAUGAGGAUCACCCAUGUCUCCUU [ArgAX 3 #OpenEnded #Sliding]	MS2 coat protein	middle bin
